molecular target: A*2601 (Homo sapiens, UniProt P04439, A114D/A173T/A270S/D101N/D185E/E277Q/E87N/F33Y/G231S/I121R/I218V/K168Q/L180W/L300P/L318F/P208A/P217A/Q86R/Q94H/R138Q/S129P/T187R/T323A/T345S/V100A/V358M); assay: biochemical; type: binding
Where no end group is shown, it is not given here.
result.type: log10 of Kd (log10 of the value in nM)
Units before log transform: nM; reported quantity: Kd; transform: log10.

Ask: Consider the sequence EVHTWTEQY [Peptide 14632] and give its measured log10 of Kd.
Result: 0.30

Ask: GET /values?readout=log10 of Kd&item= SVKKDLISY [Peptide 14634]
Result: 1.49

Ask: Give the measured log10 of Kd of EAMDTISVF [YFV A26 15915] .
Result: 0.85

Ask: Returns the measured log10 of Kd for the input sequence. Input: NVHTWTEQY [Peptide 14625]
Result: 1.59

Ask: Sample FCVKVLAPY [YFV A26 15914] — what was its log10 of Kd?
Result: 2.63

Ask: Please give the measured log10 of Kd for this sequence: ETLETLLLL [Peptide 14627]
Result: 2.54

Ask: Which log10 of Kd value belongs to FTTNIWMKF [Peptide 14630] ?
Result: 2.07

----------
Please respond with reported pKd for every item in the list.
molecular target: B*2705 (Homo sapiens, UniProt P01889, D138H/D201E/E176V/E204Q/G107R/H137Y/K202T/N104T/N87E/Q56L/Q94K/R106L/R155S/R180L/S101D/S121N/S48T/Y140D/Y33H/Y91C); assay: biochemical; type: binding
Where no end group is shown, it is not given here.
In simple prose, pKd is minus the logarithm base ten of a concentration in moles per litre.

Ask: pKd lookup needed for KRAAAGIMK [Peptide 14656] , thanks.
Result: 7.12

Ask: Entry under review: KRVVASLMR [YFV B27 15954] . Reported pKd?
Result: 6.97

Ask: So what's the measured pKd for this one? KQLGQVMLL [Peptide 14657]
Result: 6.89

Ask: # query: pKd of entry YRLRGEARK [Peptide 14655]
Result: 7.07

----------
biological target: B*3501 (Homo sapiens, UniProt P01889, A329T/A93T/A95T/C349S/D201E/D98Y/E176V/E187L/E204Q/E69T/I218V/K202T/L119I/Q94N/R155S/R180L/S121R/S35A/S48A/T118I/V127L/V306I/V36M/Y140S/Y91F); experiment: biochemical; type: binding
Where no end group is shown, it is not given here.
result.type: pKd
Just so you know, pKd here is -log10 of the concentration in molar units; reply with that number alone.

Ask: Please look up its pKd: LAVMGDAAW [YFV [B58] 16015]
Result: 9.00

Ask: Any idea what its pKd is? The sequence is FCVKVLAPY [YFV A26 15914]
Result: 8.00

Ask: Need pKd of WFYDNDNPY [YFV A24 15901] , thanks.
Result: 9.00

Ask: Recorded pKd of EAMDTISVF [YFV A26 15915] , please.
Result: 9.00

----------
molecular target: HLA-A*02:01 (Homo sapiens, UniProt P04439, D140Y/D185E/D98H/E176V/E277Q/G131W/G231S/I119V/I121R/I166T/I218V/L300P/L318F/N151K/N90K/P208A/P217A/Q86G/Q94H/R138H/R169H/T345S); experiment: biochemical; type: binding
Where no end group is shown, it is not given here.
Can you tell me log10 Kd for the items I'm about to list?
log10 Kd, nM

Ask: Recorded log10 Kd for IMAVGLVSL [Peptide 14601] , please?
Result: 1.97

Ask: Entry KMLDPRQGL [Peptide 16029] has what log10 Kd?
Result: 1.59

Ask: Dear colleague, I am looking for the recorded log10 Kd of the following sequence: VMAPDKPSL [Peptide 15880]
Result: 2.51

Ask: Sample GLYGNGILV [Peptide 15882] — what was its log10 Kd?
Result: 0.30

Ask: Which measured log10 Kd value corresponds to FVRNPFFAV [Peptide 15884] ?
Result: 3.10

Ask: Value lookup for log10 Kd; key = YMPDVLEKL [Peptide 15875]
Result: 0.30

----------
Could you please report measured pKd for the items listed next?
biological target: B*1501 (Homo sapiens, UniProt P01889, A329T/A93T/A95T/C349S/D201E/D98Y/E187L/E204Q/E69M/E70A/K202T/N87E/Q94N/R155S/R180W/S121R/S35A/S48A/V306I/V36M/Y140S/Y91S); test: biochemical; format: binding
Where no end group is shown, it is not given here.
A value of pKd is the negative decimal logarithm of a concentration given in moles per litre.

Ask: Consider the sequence KMCTDKMSF [YFV B62 16017] and give its measured pKd.
Result: 6.74

Ask: Would you mind telling me what pKd value was observed for VLIEVNPPF [YFV B62 16024] ?
Result: 7.16

Ask: Which pKd is listed for TLYAVATTF [Peptide 14700] ?
Result: 6.88

Ask: Item AQAVMEMTY [YFV B62 16021] has what recorded pKd?
Result: 7.25

Ask: GET /values?readout=pKd&item= SQEAEFTGY [YFV B62 16020]
Result: 7.03

Ask: Given the entry RTWAYHGSY [Peptide 14704] , report its measured pKd.
Result: 7.92

Ask: Suppose we examine the sequence VVQDPKNVY [YFV [B62] 16023] ; what pKd value has been reported?
Result: 6.76

Ask: Which pKd is reported for this sequence? KLEGKIVQY [Peptide 14705]
Result: 6.90

Ask: Returns the measured pKd for the input sequence. Input: AQEDDQYVF [Peptide 14702]
Result: 7.09

----------
biological target: A*0301 (Homo sapiens, UniProt P04439); assay: biochemical; format: binding
Where no end group is shown, it is not given here.
I'd be grateful if you could share measured Kd for these entries.
Lab book: enter the figure in nM, no units written.

Ask: Lookup: Kd / A*0301 (Homo sapiens, UniProt P04439) / RSHAAIGAY [YFV A3/B62 16030]
Result: 313

Ask: Please state recorded Kd (tested on A*0301 (Homo sapiens, UniProt P04439)) of ALNTITNLK [YFV A3 15887]
Result: 245

Ask: I'm curious: which Kd was measured for KTFDTEYQK [Peptide 14650] tested on A*0301 (Homo sapiens, UniProt P04439)?
Result: 198

Ask: Find Kd (A*0301 (Homo sapiens, UniProt P04439)) for the entry KTFVDLMRR [Peptide 14640]
Result: 80

Ask: Quick check: Kd on A*0301 (Homo sapiens, UniProt P04439), item KVASAGISY [Peptide 14647] ?
Result: 85

Ask: Fill in the recorded Kd for this sequence, with A*0301 (Homo sapiens, UniProt P04439) as test system: TVNPIVTEK [Peptide 14638]
Result: 40

Ask: Query for A*0301 (Homo sapiens, UniProt P04439): what Kd does the record show for KTALTGAMR [YFV A3 15889] ?
Result: 147

Ask: For A*0301 (Homo sapiens, UniProt P04439), provide Kd of SSADLSLEK [Peptide 14645] please.
Result: 85

Ask: Entry VVTLIPLCR [Peptide 14644] , system A*0301 (Homo sapiens, UniProt P04439): what Kd was measured?
Result: 9040

Ask: Field: Kd (A*0301 (Homo sapiens, UniProt P04439)). Entry: RSADLELER [Peptide 14639]
Result: 842

Ask: Give A*0301 (Homo sapiens, UniProt P04439) Kd for RMGERQLQK [YFV A3 15896]
Result: 340
